- targetOrTestSystem: GABAA receptors (α5β2γ2) (Homo sapiens, UniProt P18507+P31644)
- Construct: expressed in transfected cells; host or cells: oocytes injected with a mix of alpha, beta and gamma cDNA (1:1:10 by weight)
- Sequence (P31644 32-462): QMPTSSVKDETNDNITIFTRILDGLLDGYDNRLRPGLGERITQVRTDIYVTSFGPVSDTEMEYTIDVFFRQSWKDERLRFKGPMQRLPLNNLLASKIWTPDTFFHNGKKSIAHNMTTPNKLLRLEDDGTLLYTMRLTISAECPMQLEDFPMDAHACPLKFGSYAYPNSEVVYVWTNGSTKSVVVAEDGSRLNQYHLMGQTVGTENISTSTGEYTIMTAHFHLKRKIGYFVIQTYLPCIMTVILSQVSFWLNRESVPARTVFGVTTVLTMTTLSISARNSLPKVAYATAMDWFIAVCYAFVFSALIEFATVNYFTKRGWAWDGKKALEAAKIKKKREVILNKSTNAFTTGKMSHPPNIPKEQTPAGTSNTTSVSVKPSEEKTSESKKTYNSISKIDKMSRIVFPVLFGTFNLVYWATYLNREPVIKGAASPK
- Sequence (P47870 25-512 partner limits assumed): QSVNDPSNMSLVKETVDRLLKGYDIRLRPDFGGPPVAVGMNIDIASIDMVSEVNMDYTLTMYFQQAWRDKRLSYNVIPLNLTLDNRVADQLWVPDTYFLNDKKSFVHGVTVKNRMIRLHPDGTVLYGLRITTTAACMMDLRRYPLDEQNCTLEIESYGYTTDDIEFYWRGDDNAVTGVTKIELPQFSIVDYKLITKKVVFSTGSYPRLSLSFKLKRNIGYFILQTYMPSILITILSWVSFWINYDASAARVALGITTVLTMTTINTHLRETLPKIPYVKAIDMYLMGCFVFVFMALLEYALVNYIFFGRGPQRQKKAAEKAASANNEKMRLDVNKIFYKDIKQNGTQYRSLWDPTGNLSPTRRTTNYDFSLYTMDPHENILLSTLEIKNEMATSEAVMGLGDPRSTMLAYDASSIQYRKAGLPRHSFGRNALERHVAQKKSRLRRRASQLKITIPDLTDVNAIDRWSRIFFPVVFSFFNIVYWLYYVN
- Sequence (P18507 40-475): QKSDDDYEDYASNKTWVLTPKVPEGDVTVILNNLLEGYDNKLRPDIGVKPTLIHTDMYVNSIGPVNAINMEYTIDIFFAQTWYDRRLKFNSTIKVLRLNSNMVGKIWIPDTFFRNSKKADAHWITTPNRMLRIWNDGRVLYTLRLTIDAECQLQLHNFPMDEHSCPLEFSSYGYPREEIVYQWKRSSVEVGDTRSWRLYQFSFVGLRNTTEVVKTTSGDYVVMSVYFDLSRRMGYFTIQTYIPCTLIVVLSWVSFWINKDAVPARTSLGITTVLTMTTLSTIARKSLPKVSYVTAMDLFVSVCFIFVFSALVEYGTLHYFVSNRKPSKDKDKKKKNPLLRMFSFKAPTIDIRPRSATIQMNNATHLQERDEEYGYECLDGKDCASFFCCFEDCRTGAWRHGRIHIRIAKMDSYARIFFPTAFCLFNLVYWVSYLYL
- testProtocol: Positive allosteric modulator activity, potentiation of EC20 GABA current in oocytes
- Format: cell-based
- conditions: read-out: GABA α5 functional potentiation
Provide the recorded activation at 0.1 µM for the entries that follow.

Which activation at 0.1 µM value belongs to COc1ccc2c(c1)-c1nnc(COc3cccnc3)n1Cc1c(-c3noc(C(C)C)n3)ncn1-2 ?
> 50%

Which activation at 0.1 µM value belongs to COCc1nnc2n1Cc1c(-c3nc(C(C)C)no3)ncn1-c1ccc(OC)cc1-2 ?
20 to 49%

Which activation at 0.1 µM value belongs to Cc1nc(-c2ncn3c2Cc2c(C)nnn2-c2cc(F)ccc2-3)no1 ?
> 50%

Which activation at 0.1 µM value belongs to Cc1noc(-c2ncn3c2Cc2c(Cc4ccccc4)nnn2-c2cc(F)ccc2-3)n1 ?
20 to 49%

Which activation at 0.1 µM value belongs to CCOC(=O)c1ncn2c1Cc1c(Cc3ccc(Cl)cc3)nnn1-c1cc(F)ccc1-2 ?
20 to 49%

Which activation at 0.1 µM value belongs to COc1ccc2c(c1)-c1nnc(COc3ccccc3Cl)n1Cc1c(-c3noc(C(C)C)n3)ncn1-2 ?
20 to 49%

Which activation at 0.1 µM value belongs to CCOC(=O)c1ncn2c1Cc1c(CN3CCCC3)nnn1-c1cc(OC)ccc1-2 ?
20 to 49%

Which activation at 0.1 µM value belongs to CCOC(=O)c1ncn2c1Cc1c(C)nnn1-c1cc(OC)ccc1-2 ?
20 to 49%

Which activation at 0.1 µM value belongs to Cc1nc(-c2ncn3c2Cc2c(C)nnn2-c2ccccc2-3)no1 ?
20 to 49%

Which activation at 0.1 µM value belongs to Cc1noc(-c2ncn3c2Cc2c(C)nnn2-c2cc(F)ccc2-3)n1 ?
20 to 49%

Which activation at 0.1 µM value belongs to COc1ccc2c(c1)-c1nnc(COc3ccccc3)n1Cc1c(-c3nc(C)no3)ncn1-2 ?
20 to 49%

Which activation at 0.1 µM value belongs to CCOC(=O)c1ncn2c1Cn1c(COc3ccccc3)nnc1-c1cc(OC)ccc1-2 ?
20 to 49%

Which activation at 0.1 µM value belongs to CCc1nc(-c2ncn3c2Cn2c(COc4ccccc4)nnc2-c2cc(F)ccc2-3)no1 ?
20 to 49%

Which activation at 0.1 µM value belongs to Cc1nnn2c1Cc1c(C(=O)OCC(C)(C)C)ncn1-c1ccc(F)cc1-2 ?
> 50%

Which activation at 0.1 µM value belongs to COc1ccc2c(c1)-c1nnc(COc3ccc(F)cc3)n1Cc1c(-c3noc(C)n3)ncn1-2 ?
20 to 49%

Which activation at 0.1 µM value belongs to COCc1nnc2n1Cc1c(-c3nc(C)no3)ncn1-c1ccc(OC)cc1-2 ?
20 to 49%

Which activation at 0.1 µM value belongs to CCOC(=O)c1ncn2c1Cc1c(COc3cccc(OC)c3)nnn1-c1cc(OC)ccc1-2 ?
20 to 49%

Which activation at 0.1 µM value belongs to Cc1nnn2c1Cc1c(-c3noc(C(C)(C)C)n3)ncn1-c1ccc(F)cc1-2 ?
> 50%

Which activation at 0.1 µM value belongs to COc1ccc2c(c1)-c1nnc(COc3ccc(F)cc3)n1Cc1c(-c3noc(C(C)C)n3)ncn1-2 ?
> 50%

Which activation at 0.1 µM value belongs to CCOC(=O)c1ncn2c1Cc1c(C)nnn1-c1cc(F)ccc1-2 ?
20 to 49%

Which activation at 0.1 µM value belongs to Cc1nc(-c2ncn3c2Cn2c(COc4ccccc4)nnc2-c2cc(F)ccc2-3)no1 ?
20 to 49%

Which activation at 0.1 µM value belongs to Cc1nnn2c1Cc1c(C(=O)OC(C)C)ncn1-c1ccccc1-2 ?
20 to 49%

Which activation at 0.1 µM value belongs to Cc1noc(-c2ncn3c2Cc2c(C)nnn2-c2ccccc2-3)n1 ?
20 to 49%

Which activation at 0.1 µM value belongs to CCOC(=O)c1ncn2c1Cn1c(COc3ccccc3)nnc1-c1cc(F)ccc1-2 ?
20 to 49%

Which activation at 0.1 µM value belongs to COc1ccc2c(c1)-c1nnc(COc3cccc4ccccc34)n1Cc1c(-c3noc(C(C)C)n3)ncn1-2 ?
> 50%

Which activation at 0.1 µM value belongs to Cc1nnn2c1Cc1c(-c3noc(C(C)C)n3)ncn1-c1ccc(F)cc1-2 ?
> 50%

Which activation at 0.1 µM value belongs to Cc1nnn2c1Cc1c(-c3nc(C(C)C)no3)ncn1-c1ccccc1-2 ?
20 to 49%

Which activation at 0.1 µM value belongs to COc1ccc2c(c1)-c1nnc(COc3ccccc3)n1Cc1c(-c3noc(C)n3)ncn1-2 ?
20 to 49%

Which activation at 0.1 µM value belongs to COc1ccc2c(c1)-c1nnc(COc3ccccc3F)n1Cc1c(-c3noc(C(C)C)n3)ncn1-2 ?
> 50%

Which activation at 0.1 µM value belongs to COc1ccc2c(c1)-c1nnc(COC3CCCC3)n1Cc1c(-c3noc(C(C)C)n3)ncn1-2 ?
> 50%

Which activation at 0.1 µM value belongs to Cc1nnn2c1Cc1c(C(=O)OCC(F)(F)F)ncn1-c1ccc(F)cc1-2 ?
> 50%

Which activation at 0.1 µM value belongs to CCc1nc(-c2ncn3c2Cc2c(C)nnn2-c2cc(F)ccc2-3)no1 ?
20 to 49%

Which activation at 0.1 µM value belongs to CCOCc1nnc2n1Cc1c(-c3noc(C(C)C)n3)ncn1-c1ccc(OC)cc1-2 ?
> 50%
